Origin of values: paper PMC6880826

biological target: Notum(81-451 Cys330Ser) (Homo sapiens, UniProt Q6P988, C330S); test: Notum OPTS fluorescence inhibition assay
Sequence (Q6P988 81-451 C330S): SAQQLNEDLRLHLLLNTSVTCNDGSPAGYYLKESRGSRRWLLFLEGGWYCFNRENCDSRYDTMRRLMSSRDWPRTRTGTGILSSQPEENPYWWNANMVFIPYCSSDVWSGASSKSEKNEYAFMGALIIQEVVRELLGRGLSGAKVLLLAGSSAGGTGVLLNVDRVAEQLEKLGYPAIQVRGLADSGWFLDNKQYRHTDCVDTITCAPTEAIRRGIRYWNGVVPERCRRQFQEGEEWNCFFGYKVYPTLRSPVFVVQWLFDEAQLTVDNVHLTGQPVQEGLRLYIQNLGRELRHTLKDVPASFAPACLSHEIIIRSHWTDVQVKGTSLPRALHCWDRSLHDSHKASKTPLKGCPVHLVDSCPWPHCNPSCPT
Doc: threshold 7 nM (exclusive). Items with IC50 beneath it return criterion met; others return criterion not met.

> print(dat)
                                   molecule     classification
1  O=C(CSc1ncnc2c(C3CC3)c(Cl)sc12)N1CC2(COC2)C1 [Compound 17f]  criterion not met
2  O=C(CSc1ncnc2c(C3CC3)c(Cl)sc12)N1CCc2ncccc2C1 [Compound 17l]      criterion met
3  CN(C)C(=O)CSc1ncnc2c(C3CC3)c(Cl)sc12 [Compound 17a]  criterion not met
4  O=C(CSc1ncnc2c(C3CC3)c(Cl)sc12)N1CCS(=O)(=O)CC1 [Compound 17d]  criterion not met
5  O=C(CSc1ncnc2c(C3CC3)c(Cl)sc12)N1CCn2c(nnc2C(F)(F)F)C1 [Compound 17q]  criterion not met
6  O=C(CSc1ncnc2c(C3CC3)c(Cl)sc12)N1CCc2[nH]cnc2C1 [Compound 17o]      criterion met
7  CN1CN(C(=O)CSc2ncnc3c(C4CC4)c(Cl)sc23)CC1=O [Compound 17h]      criterion met
8  O=C1CCN(C(=O)CSc2ncnc3c(C4CC4)c(Cl)sc23)CCN1 [Compound 17k]  criterion not met
